These data points were gathered from PubChem BioAssay (NCI).

assay: NCI Yeast Anticancer Drug Screen. Data for the mlh1 rad18 strain (AID 175); conditions: S. cerevisiae mlh1 rad18 strain growth inhibition; at 50.0 µM
This is part of a sample that, as a whole, favours compounds with a hit. Of some 79,000 tested, about 15% had one in any assay. The source made the active and inactive calls. No stated cut-off is given here; in the data, active means growth inhibition above about 70%; inactive means the rest.
# output must be one of YES = active, NO = inactive

Dear all, I need the recorded test outcome for COC(=O)/C(=N\NC(=O)c1ccccc1O)C(C#N)c1ccc(Cl)cc1 (configuration not stated) , thank you.
YES

====

assay: NCI Yeast Anticancer Drug Screen. Data for the rad50 strain (AID 155);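 further: 0% = growth of vehicle-only cultures of the same strain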; conditions: S. cerevisiae rad50 strain growth inhibition; at 5.0 µM (retest, dose inferred, filed as 0.5); hits give high values
The panel holds about 79,000 compounds, 15% with a hit somewhere; the sample as a whole holds those more often.
Readings of growth inhibition for the listed compounds
# number only, unit % dropped from output

Known results for compounds:
CC(C)(Cl)C(Cl)CC/C(CBr)=C(\Cl)CBr (stereo not drawn)	10
CCOP(=O)(OCC)OC1c2[nH]ccc2-c2cc(C(=O)OC)[nH]c2C1OC (stereo not drawn)	3
C=C1CC2(CC(C(C)C)CCC2C)OC1=O (stereo not drawn)	14
Cc1ccc(N2C(N)=C(C#N)C(C#N)(C#N)C2c2ccccc2)cc1 (stereo not drawn)	22
CC(C)(C)C1=CC(=CC=C2C=CN(CCO)C=C2)C=C(C(C)(C)C)C1=O	-2
O=[N+]([O-])c1ccc(C(Nc2ccccc2)c2ccc3cccnc3c2O)cc1 (stereo not drawn)	-5
COc1cc2c(cc1O)C(O)CCCC2 (stereo not drawn)	-146
CC(=O)Oc1ccc(-c2ccccc2)cc1Br	8
CC(/C=C/c1cccc(C)c1)=N\NC(N)=S	14
CC1(C)OC2C(CO)OC(n3ncc(=S)[nH]c3=O)C2O1 (stereo not drawn)	-4

Report growth inhibition, nothing else, for this compound: CN1C(/C=C/c2ccc(O)c3ncccc23)CCC2CCCC(O)C21 (stereo not drawn)
1

For the compound `C(=C\c1cnnc2ccccc12)/c1cccnc1` , report growth inhibition.
11

Kindly indicate its recorded growth inhibition. Item: `Oc1c(Cl)cc(C(c2cc(Cl)c(O)c(Cl)c2)C(c2cc(Cl)c(O)c(Cl)c2)c2cc(Cl)c(O)c(Cl)c2)cc1Cl`
99

Supply growth inhibition value. Item: Cc1ccc(/C=C2\CCCC(CN(C)C)C2=O)cc1 (stereo not drawn)
-12

Using the record for `CC(=O)[O-].[Mn+3].[O-]c1ccc(Cl)cc1C=NCCN=Cc1cc(Cl)ccc1[O-]` , state its measured growth inhibition.
-2

Check the records and state growth inhibition for CC(C)(CN1CCCCC1)C(=O)CC(SCCS(=O)(=O)O)c1ccc(Cl)c(Cl)c1 (stereo not drawn)
62

Respond only with growth inhibition recorded for `C=CCOC(=O)SC(=S)OCN(C)C`
3

Determine from records and report growth inhibition for C=C1CC(O)C2C(C[Se]c3ccccc3)C(=O)O[C@@H]2C2C(=C)[C@@H](O)CC12 (stereo partly drawn)
-3
